Values were extracted from patent US12234221B2.

- test-target: human Nav1.8 (hNav1.8) ion channel (Homo sapiens, UniProt Q9Y5Y9)
- Sequence (Q9Y5Y9 whole entry): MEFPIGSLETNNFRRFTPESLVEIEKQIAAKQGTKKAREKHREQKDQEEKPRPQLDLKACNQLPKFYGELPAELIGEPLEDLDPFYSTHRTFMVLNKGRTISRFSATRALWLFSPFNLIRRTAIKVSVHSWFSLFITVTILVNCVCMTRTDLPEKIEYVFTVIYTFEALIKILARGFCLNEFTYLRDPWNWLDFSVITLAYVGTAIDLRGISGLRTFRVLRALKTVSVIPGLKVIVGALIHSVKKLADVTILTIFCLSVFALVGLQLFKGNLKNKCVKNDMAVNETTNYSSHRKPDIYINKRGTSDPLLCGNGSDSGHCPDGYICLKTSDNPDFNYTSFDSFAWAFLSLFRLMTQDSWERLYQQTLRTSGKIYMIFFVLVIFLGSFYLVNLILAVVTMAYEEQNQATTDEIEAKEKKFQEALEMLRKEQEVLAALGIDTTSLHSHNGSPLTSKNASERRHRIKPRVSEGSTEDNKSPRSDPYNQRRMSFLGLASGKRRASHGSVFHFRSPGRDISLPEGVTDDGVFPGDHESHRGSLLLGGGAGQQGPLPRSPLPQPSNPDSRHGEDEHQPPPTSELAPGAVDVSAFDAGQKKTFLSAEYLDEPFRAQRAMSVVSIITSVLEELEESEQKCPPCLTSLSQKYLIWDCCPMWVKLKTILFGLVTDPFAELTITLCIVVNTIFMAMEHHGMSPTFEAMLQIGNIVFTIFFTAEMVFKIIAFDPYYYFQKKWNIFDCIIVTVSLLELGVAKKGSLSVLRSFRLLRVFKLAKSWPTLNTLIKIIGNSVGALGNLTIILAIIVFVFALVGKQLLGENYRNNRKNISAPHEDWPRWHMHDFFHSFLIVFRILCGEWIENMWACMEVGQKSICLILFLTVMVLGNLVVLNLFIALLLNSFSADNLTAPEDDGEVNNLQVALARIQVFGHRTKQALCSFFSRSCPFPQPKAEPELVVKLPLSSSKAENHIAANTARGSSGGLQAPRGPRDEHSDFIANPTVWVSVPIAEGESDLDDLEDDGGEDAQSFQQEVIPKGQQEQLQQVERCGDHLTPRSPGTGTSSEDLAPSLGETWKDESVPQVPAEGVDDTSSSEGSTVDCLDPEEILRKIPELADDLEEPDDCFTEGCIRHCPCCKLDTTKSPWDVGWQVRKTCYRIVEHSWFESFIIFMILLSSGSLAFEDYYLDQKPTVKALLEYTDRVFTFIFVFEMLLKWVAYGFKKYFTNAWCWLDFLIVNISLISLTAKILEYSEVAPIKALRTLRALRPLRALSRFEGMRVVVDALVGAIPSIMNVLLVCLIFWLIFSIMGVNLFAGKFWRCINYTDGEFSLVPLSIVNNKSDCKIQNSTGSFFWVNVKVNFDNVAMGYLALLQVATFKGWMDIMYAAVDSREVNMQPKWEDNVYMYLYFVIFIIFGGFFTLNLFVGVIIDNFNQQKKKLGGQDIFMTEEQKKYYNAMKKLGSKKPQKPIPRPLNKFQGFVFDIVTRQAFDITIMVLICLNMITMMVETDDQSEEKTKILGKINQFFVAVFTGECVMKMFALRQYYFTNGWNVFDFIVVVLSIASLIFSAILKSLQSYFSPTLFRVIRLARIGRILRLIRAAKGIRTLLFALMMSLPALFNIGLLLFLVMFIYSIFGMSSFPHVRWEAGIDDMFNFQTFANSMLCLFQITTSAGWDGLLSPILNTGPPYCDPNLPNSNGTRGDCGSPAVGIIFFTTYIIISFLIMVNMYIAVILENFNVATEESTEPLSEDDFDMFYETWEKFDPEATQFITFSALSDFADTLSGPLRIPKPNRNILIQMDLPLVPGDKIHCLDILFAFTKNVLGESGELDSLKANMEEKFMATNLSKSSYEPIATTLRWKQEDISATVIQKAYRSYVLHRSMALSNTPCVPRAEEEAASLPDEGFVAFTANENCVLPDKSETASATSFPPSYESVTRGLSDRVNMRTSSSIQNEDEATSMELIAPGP
- method-notes: Nav1.8 channel inhibition, estimated IC50 (one or more of: fluorescence inhibition assay, PatchXpress, IonFlux HT automated patch clamp)
- test-conditions: HEK293 cells stably expressing hNav1.8; method used per compound not stated; read-out: Activity range (estimated IC50)
pIC50: −log10 of the molar value.
Consider the following compounds; for each one, report its pIC50.

-- ask Reported pIC50 for human Nav1.8 (hNav1.8) ion channel (Homo sapiens, UniProt Q9Y5Y9), given `COc1cc(F)ccc1Oc1ncc(C2CC2)cc1C(=O)Nc1cccc(S(C)(=O)=O)c1` ?
-- reply < 6.00

-- ask Reported pIC50 for human Nav1.8 (hNav1.8) ion channel (Homo sapiens, UniProt Q9Y5Y9), given COc1ccc(Oc2cc(C(F)(F)F)ncc2C(=O)Nc2cccc(S(C)(=N)=O)c2)c(OC)c1 (stereo not shown) ?
-- reply < 6.00

-- ask Reported pIC50 for human Nav1.8 (hNav1.8) ion channel (Homo sapiens, UniProt Q9Y5Y9), given `Cn1nccc1NC(=O)c1cc(C(F)(F)F)cnc1Oc1ccc(OC(F)(F)F)cc1Cl` ?
-- reply 6.00 to 6.30

-- ask Reported pIC50 for human Nav1.8 (hNav1.8) ion channel (Homo sapiens, UniProt Q9Y5Y9), given `CC(C)c1ccccc1Oc1ncc(C(F)(F)F)cc1C(=O)Nc1cccc(S(C)(=O)=O)c1` ?
-- reply > 6.30

-- ask Reported pIC50 for human Nav1.8 (hNav1.8) ion channel (Homo sapiens, UniProt Q9Y5Y9), given `NC(=O)c1cccc(NC(=O)c2cc(C(F)(F)F)cnc2Oc2ccc(OC(F)(F)F)cc2Cl)c1` ?
-- reply 6.00 to 6.30

-- ask Reported pIC50 for human Nav1.8 (hNav1.8) ion channel (Homo sapiens, UniProt Q9Y5Y9), given COc1ccc(Oc2ncc(C(F)(F)F)cc2C(=O)Nc2cccc(S(C)(=N)=O)c2)c(Cl)c1 (stereo not shown) ?
-- reply > 6.30

-- ask Reported pIC50 for human Nav1.8 (hNav1.8) ion channel (Homo sapiens, UniProt Q9Y5Y9), given `Cn1cnc(NC(=O)c2cc(C(F)(F)F)cnc2Oc2ccc(OC(F)(F)F)cc2Cl)n1` ?
-- reply < 6.00

-- ask Reported pIC50 for human Nav1.8 (hNav1.8) ion channel (Homo sapiens, UniProt Q9Y5Y9), given `COc1cc(NC(=O)c2cc(C(F)(F)F)cnc2Oc2ccc(F)cc2OC)ccn1` ?
-- reply < 6.00

-- ask Reported pIC50 for human Nav1.8 (hNav1.8) ion channel (Homo sapiens, UniProt Q9Y5Y9), given `O=C(Nc1ccnnc1)c1cc(C(F)(F)F)cnc1Oc1ccc(OC(F)(F)F)cc1Cl` ?
-- reply > 6.30

-- ask Reported pIC50 for human Nav1.8 (hNav1.8) ion channel (Homo sapiens, UniProt Q9Y5Y9), given `CS(=O)(=O)c1cccc(NC(=O)c2cc(C(F)(F)F)cnc2Oc2ccc(OCC(F)(F)F)cc2)c1` ?
-- reply > 6.30

-- ask Reported pIC50 for human Nav1.8 (hNav1.8) ion channel (Homo sapiens, UniProt Q9Y5Y9), given Cc1cc(F)ccc1Oc1cc(C(F)(F)F)ncc1C(=O)Nc1cccc(S(C)(=N)=O)c1 (stereo not shown) ?
-- reply < 6.00

-- ask Reported pIC50 for human Nav1.8 (hNav1.8) ion channel (Homo sapiens, UniProt Q9Y5Y9), given `COc1ccc(Oc2ncc(C(F)(F)F)cc2C(=O)Nc2cccc(S(C)(=O)=O)c2)c(Cl)c1` ?
-- reply > 6.30

-- ask Reported pIC50 for human Nav1.8 (hNav1.8) ion channel (Homo sapiens, UniProt Q9Y5Y9), given CN=S(C)(=O)c1cccc(NC(=O)c2cnc(C(F)(F)F)cc2Oc2ccc(F)cc2C)c1 (stereo not shown) ?
-- reply > 6.30

-- ask Reported pIC50 for human Nav1.8 (hNav1.8) ion channel (Homo sapiens, UniProt Q9Y5Y9), given CS(=N)(=O)c1cccc(NC(=O)c2cc(C(F)(F)F)cnc2Oc2ccc(OC(F)(F)F)cc2)c1 (single isomer, unassigned) [Example 131] ?
-- reply > 6.30

-- ask Reported pIC50 for human Nav1.8 (hNav1.8) ion channel (Homo sapiens, UniProt Q9Y5Y9), given `COc1ccc(Oc2ncc(C(F)(F)F)cc2C(=O)Nc2ccnnc2)c(OC)c1` ?
-- reply < 6.00

-- ask Reported pIC50 for human Nav1.8 (hNav1.8) ion channel (Homo sapiens, UniProt Q9Y5Y9), given `COc1cc(F)ccc1Oc1ncc(C(F)(F)F)cc1C(=O)Nc1ccncc1` ?
-- reply 6.00 to 6.30

* * *

Consider the following compounds; for each one, report its pIC50.
- test-target: human Nav1.8 (hNav1.8) ion channel (Homo sapiens, UniProt Q9Y5Y9)
- method-notes: Nav1.8 channel inhibition, estimated IC50 (one or more of: fluorescence inhibition assay, PatchXpress, IonFlux HT automated patch clamp)
- test-conditions: HEK293 cells stably expressing hNav1.8; method used per compound not stated; read-out: Activity range (estimated IC50)
pIC50: −log10 of the molar value.

-- ask Reported pIC50 for human Nav1.8 (hNav1.8) ion channel (Homo sapiens, UniProt Q9Y5Y9), given `Cc1cc(NC(=O)c2cc(C(F)(F)F)cnc2Oc2ccc(OC(F)(F)F)cc2Cl)ccn1` ?
-- reply > 6.30

-- ask Reported pIC50 for human Nav1.8 (hNav1.8) ion channel (Homo sapiens, UniProt Q9Y5Y9), given `O=C(Nc1cccnc1)c1cc(C(F)(F)F)cnc1Oc1ccc(OC(F)(F)F)cc1` ?
-- reply 6.00 to 6.30

-- ask Reported pIC50 for human Nav1.8 (hNav1.8) ion channel (Homo sapiens, UniProt Q9Y5Y9), given `COc1cc(F)ccc1Oc1nc(C)c(C)cc1C(=O)Nc1cccc(S(C)(=O)=O)c1` ?
-- reply > 6.30

-- ask Reported pIC50 for human Nav1.8 (hNav1.8) ion channel (Homo sapiens, UniProt Q9Y5Y9), given CS(=N)(=O)c1cccc(NC(=O)c2cnc(C(F)(F)F)cc2Oc2ccc(OC(F)(F)F)cc2)c1 (centres unmarked) ?
-- reply > 6.30

-- ask Reported pIC50 for human Nav1.8 (hNav1.8) ion channel (Homo sapiens, UniProt Q9Y5Y9), given `O=C(Nc1ccc[n+]([O-])c1)c1cc(C(F)(F)F)cnc1Oc1ccc(OC(F)F)cc1` ?
-- reply > 6.30

-- ask Reported pIC50 for human Nav1.8 (hNav1.8) ion channel (Homo sapiens, UniProt Q9Y5Y9), given `O=C(Nc1ccc[n+]([O-])c1)c1cnc(C(F)(F)F)cc1Oc1ccc(F)cc1F` ?
-- reply < 6.00

-- ask Reported pIC50 for human Nav1.8 (hNav1.8) ion channel (Homo sapiens, UniProt Q9Y5Y9), given `CS(=O)(=O)c1cccc(NC(=O)c2cc(C(F)(F)F)cnc2Oc2cc(F)cc(Cl)c2)c1` ?
-- reply < 6.00

-- ask Reported pIC50 for human Nav1.8 (hNav1.8) ion channel (Homo sapiens, UniProt Q9Y5Y9), given CN=S(C)(=O)c1cccc(NC(=O)c2cc(C(F)(F)F)cnc2Oc2ccc(OC(F)(F)F)cc2Cl)c1 (centres unmarked) ?
-- reply > 6.30

* * *

Consider the following molecules; for each one, report its pIC50.
- test-target: human Nav1.8 (hNav1.8) ion channel (Homo sapiens, UniProt Q9Y5Y9)
- method-notes: Nav1.8 channel inhibition, estimated IC50 (one or more of: fluorescence inhibition assay, PatchXpress, IonFlux HT automated patch clamp)
- test-conditions: HEK293 cells stably expressing hNav1.8; method used per compound not stated; read-out: Activity range (estimated IC50)
pIC50: −log10 of the molar value.

-- ask Look at this molecule and give its reported pIC50. `O=C(Nc1cccnc1)c1cnc(C(F)(F)F)cc1Oc1ccc(OC(F)(F)F)cc1Cl`
-- reply > 6.30

-- ask Look at this molecule and give its reported pIC50. `N#Cc1cccc(NC(=O)c2cc(C(F)(F)F)cnc2Oc2ccc(OC(F)(F)F)cc2Cl)c1`
-- reply > 6.30

-- ask Look at this molecule and give its reported pIC50. CN=S(C)(=O)c1cccc(NC(=O)c2cc(C(F)(F)F)cnc2Oc2ccc(F)cc2F)c1 (stereo not shown)
-- reply > 6.30

-- ask Look at this molecule and give its reported pIC50. `O=C(Nc1ccnc(F)c1)c1cc(C(F)(F)F)cnc1Oc1ccc(OC(F)(F)F)cc1Cl`
-- reply > 6.30

-- ask Look at this molecule and give its reported pIC50. `CS(=O)(=O)c1cccc(NC(=O)c2cc(C(F)(F)F)cnc2Oc2ccc(C(F)(F)F)nc2)c1`
-- reply < 6.00

-- ask Look at this molecule and give its reported pIC50. `CS(C)(=O)=Nc1cccc(NC(=O)c2cc(C(F)(F)F)cnc2Oc2ccc(OC(F)(F)F)cc2)c1`
-- reply < 6.00

-- ask Look at this molecule and give its reported pIC50. `Cn1ncnc1NC(=O)c1cc(C(F)(F)F)cnc1Oc1ccc(OC(F)(F)F)cc1Cl`
-- reply < 6.00

-- ask Look at this molecule and give its reported pIC50. `COc1cc(F)ccc1Oc1nc(C)ccc1C(=O)Nc1cccc(S(C)(=O)=O)c1`
-- reply < 6.00

-- ask Look at this molecule and give its reported pIC50. `COc1cc(F)ccc1Oc1ncc(C(F)(F)F)cc1C(=O)Nc1cccc(C#N)c1`
-- reply > 6.30

-- ask Look at this molecule and give its reported pIC50. `O=C(Nc1ccc[n+]([O-])c1)c1cc(C(F)(F)F)cnc1Oc1ccc(F)cc1F`
-- reply < 6.00

-- ask Look at this molecule and give its reported pIC50. `COc1cc(F)ccc1Oc1cc(C(F)(F)F)ncc1C(=O)Nc1ccc[n+]([O-])c1`
-- reply 6.00 to 6.30

-- ask Look at this molecule and give its reported pIC50. `O=C(Nc1cncnc1)c1cc(C(F)(F)F)cnc1Oc1ccc(OC(F)(F)F)cc1Cl`
-- reply 6.00 to 6.30

-- ask Look at this molecule and give its reported pIC50. `COc1cc(F)ccc1Oc1ncc(C(F)(F)F)cc1C(=O)Nc1ccnc(C)c1`
-- reply < 6.00

-- ask Look at this molecule and give its reported pIC50. `COc1ccc(Oc2ncc(C(F)(F)F)cc2C(=O)Nc2cccc(S(C)(=O)=O)c2)c(OC)c1`
-- reply > 6.30

-- ask Look at this molecule and give its reported pIC50. `COc1cc(F)ccc1Oc1cc(C(F)(F)F)ncc1C(=O)Nc1cccc(S(C)(=O)=O)c1`
-- reply > 6.30

-- ask Look at this molecule and give its reported pIC50. `CN(C)C(=O)c1cccc(NC(=O)c2cc(C(F)(F)F)cnc2Oc2ccc(OC(F)(F)F)cc2Cl)c1`
-- reply > 6.30
